Listed here are sequences together with their documented self-aminoacylation.
- Test system: biotinyl-Trp-oxazolone
- test_description: self-aminoacylation, catalytic enhancement (BWO) (fold over background); higher = more active; k-Seq, kA / k0A0; sequences stand for … in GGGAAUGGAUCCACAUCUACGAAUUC…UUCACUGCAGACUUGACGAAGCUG
This sample holds only a part of the variants without activity.
No unit in the answer, only the number.

Reference set, count: 5
Return reported self-aminoacylation. Input sequence: CUACUUCAUACAACCGGUCUG [Fam1A.1 aminoacylation ribozyme variant] 0.415

Return reported self-aminoacylation. Input sequence: CGACACUUCAAGCAAUCGAUC [Fam1B.1 aminoacylation ribozyme variant] 0.715

Return reported self-aminoacylation. Input sequence: AAGUUAGCUAAUAGUCGUAAG [Fam3.1 aminoacylation ribozyme variant] 3.54

Quote self-aminoacylation reported for AAGUAUGCUAAUAGUCCCAAG [Fam3.1 aminoacylation ribozyme variant] please. 1.54

Could you please provide reported self-aminoacylation for AAGUUUGCUAUCAGUCGCAAG [Fam3.1 aminoacylation ribozyme variant] ? Thanks! 0.615

Continuing:
Return reported self-aminoacylation. Input sequence: CUACUUUAAUCAAUCGGUCUG [Fam1A.1 aminoacylation ribozyme variant] 0.755

Output self-aminoacylation of AUUAUCCUGGUCAACGAGUGA [Fam2.1 aminoacylation ribozyme variant] 7.67

Look up and report measured self-aminoacylation for this entry: AAGGUUGCUAAUAGUCGCAAA [Fam3.1 aminoacylation ribozyme variant] 1.4

Please report self-aminoacylation for the following sequence: CUAAUACAAACAAUCGGUCUG [Fam1A.1 aminoacylation ribozyme variant] 0.678

Please give the documented self-aminoacylation of CCACACGUCAAGCAAACGGUC [Fam1B.1 aminoacylation ribozyme variant] 0.619
